- PROTOCOL_TEXT: qHTS profiling of the MIPE4 collection as inhibitors of Plasmodium falciparum (DD2) proliferation (AID 743345)
- MEASUREMENT_SETUP: P. falciparum Dd2 in erythrocytes, SYBR Green DNA, 72 h; at 28.5 µM (top of the series) unless noted
OBSERVABLE: parasite growth remaining, % of DMSO control (lower = more inhibition)

COMPOUND: CC1=C(C)C(=O)C(C(CCCCCC(=O)O)c2ccccc2)=C(C)C1=O (stereo unspecified)
MEAS_VALUE: 87.9%
--
COMPOUND: NNc1nncc2ccccc12
MEAS_VALUE: 92.8%
--
COMPOUND: CCC1=C(C)CN(C(=O)NCCc2ccc(S(=O)(=O)NC(=O)NC3CCC(C)CC3)cc2)C1=O (stereo unspecified)
MEAS_VALUE: 91.8%
--
COMPOUND: Clc1ccc2c(N3CCN(CCCN4CCN(c5ccnc6cc(Cl)ccc56)CC4)CC3)ccnc2c1
MEAS_VALUE: 9.96% [at 9.64 µM]
--
COMPOUND: NC(=NCc1ccccc1)NC(=O)c1nc(Cl)c(N)nc1N
MEAS_VALUE: 98.4%
--
COMPOUND: Cc1ccc(C)c(OCCCC(C)(C)C(=O)O)c1
MEAS_VALUE: 47.3%

----------
- Tested on: Hek293T
- PROTOCOL_TEXT: Primary qHTS to identify gynecologic anti-cancer compounds using libraries of approved drugs and bioactive compounds (AID 1345084); further: nearly all actives have a fitted effect of over 55% in size
- MEASUREMENT_SETUP: Gynecologic cancer cell panel viability, ATPlite luminescence, 48 h, control line for the selectivity index; series mostly up to 57.5 µM
Results filed as inconclusive are left out. The source made the active and inactive calls. The call rests on the fitted dose curve; in most records, active means well fitted cell-killing curve with a large enough effect; inconclusive means small, poorly fitted or top-dose-only effect, or effect the other way; inactive means flat fitted curve, though single readings scatter.
Classes used: active, inactive

COMPOUND: NNc1nncc2ccccc12
ASSIGNED_CLASS: inactive
//
COMPOUND: CC(C)c1nc(CN(C)C(=O)N[C@H](C(=O)N[C@@H](Cc2ccccc2)C[C@H](O)[C@H](Cc2ccccc2)NC(=O)OCc2cncs2)C(C)C)cs1
ASSIGNED_CLASS: inactive
//
COMPOUND: O=C(c1ccccc1)c1ccc2n1CCC2C(=O)O (stereo unspecified)
ASSIGNED_CLASS: inactive
//
COMPOUND: Cc1cccc(CN2CCN(C(c3ccccc3)c3ccc(Cl)cc3)CC2)c1 (stereo unspecified)
ASSIGNED_CLASS: inactive
//
COMPOUND: CN(c1nccc(=O)[nH]1)C1CCN(c2nc3ccccc3n2Cc2ccc(F)cc2)CC1
ASSIGNED_CLASS: inactive
//
COMPOUND: NS(=O)(=O)c1cc(C(=O)O)c(NCc2ccco2)cc1Cl
ASSIGNED_CLASS: inactive
//
COMPOUND: CC1=C(C(=O)O)N2C(=O)[C@@H](NC(=O)[C@H](N)C3=CCC=CC3)[C@H]2SC1
ASSIGNED_CLASS: inactive
//
COMPOUND: CC1(C)CCC(C)(C)c2cc(NC(=O)c3ccc(C(=O)O)cc3)ccc21
ASSIGNED_CLASS: inactive
//
COMPOUND: O=C(OC1C[C@H]2CC[C@@H](C1)[N+]21CCCC1)C(O)(c1ccccc1)c1ccccc1 (stereo partly specified)
ASSIGNED_CLASS: inactive
//
COMPOUND: OC(CN1CCN(c2cccc(Cl)c2)CC1)C(c1ccccc1)c1ccccc1 (stereo unspecified)
ASSIGNED_CLASS: inactive
//
COMPOUND: CN(C)C(=O)COC(=O)Cc1ccc(OC(=O)c2ccc(N=C(N)N)cc2)cc1
ASSIGNED_CLASS: inactive
//
COMPOUND: Cc1nc2n(c(=O)c1CCN1CCC(c3noc4cc(F)ccc34)CC1)CCCC2
ASSIGNED_CLASS: inactive
//
COMPOUND: NC(=O)Cc1cccc(C(=O)c2ccccc2)c1N
ASSIGNED_CLASS: inactive
//
COMPOUND: Cc1nc(Nc2ncc(C(=O)Nc3c(C)cccc3Cl)s2)cc(N2CCN(CCO)CC2)n1
ASSIGNED_CLASS: inactive
//
COMPOUND: Cc1ccc(Nc2nccc(N(C)c3ccc4c(C)n(C)nc4c3)n2)cc1S(N)(=O)=O
ASSIGNED_CLASS: inactive
//
COMPOUND: Nc1ncn([C@H]2C[C@H](O)[C@@H](CO)O2)c(=O)n1
ASSIGNED_CLASS: inactive
//
COMPOUND: CCc1nc(N)nc(N)c1-c1ccc(Cl)cc1
ASSIGNED_CLASS: active
//
COMPOUND: CN1CCC(=C2c3ccccc3CCc3sccc32)CC1
ASSIGNED_CLASS: inactive
//
COMPOUND: Clc1ccc(C(Cn2ccnc2)OCc2ccc(Sc3ccccc3)cc2)c(Cl)c1 (stereo unspecified)
ASSIGNED_CLASS: inactive
//
COMPOUND: COC(=O)N[C@H](C(=O)N[C@@H](Cc1ccccc1)[C@@H](O)CN(Cc1ccc(-c2ccccn2)cc1)NC(=O)[C@@H](NC(=O)OC)C(C)(C)C)C(C)(C)C
ASSIGNED_CLASS: inactive
//
COMPOUND: CC(=O)Nc1ccc(O)cc1
ASSIGNED_CLASS: inactive

Sourced from PubChem BioAssay (NCATS)
